B1: ZNF263 (parent)
chain: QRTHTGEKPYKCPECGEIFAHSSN

# Variants of: B1
# assay-comment: protein stability index of a GFP-peptide fusion (GPS, HEK-293T) (PSI 1-6); higher = more stable;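 further: lentivirally expressed fusions sorted by FACS into six bins by GFP to DsRed ratio, PSI derived from sequencing read proportions per bin multiplied by bin number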
# experimental-parameters: c terminus: a fixed tail appended
Label criterion met when protein stability index is at or above 3; anything below gets criterion not met.

Use the examples below as a reference point.
QRTHTGEMPYKCPECGEIFAHSSN    criterion met
QRTHTGEKPYKCPECGEIFAHSQN    criterion met
QRTHTGWKPYKCPECGEIFAHSSN    criterion not met

query: Can QRTHTGEKPYKCPSCGEIFAHSSN be said to have protein stability index at or above 3?
result: criterion met

query: Kindly determine if protein stability index recorded for QRTHTGEKPYKCPECGEIFSHSSN is above or exactly 3.
result: criterion met

query: Please indicate if the recorded protein stability index for QRCHTGEKPYKCPECGEIFAHSSN meets or exceeds 3.
result: criterion met

query: Can QRTHTGEKPYKCPECGEILAHSSN be said to have protein stability index at or above 3?
result: criterion met

query: Quick check: does QRTHTGEKPYKCPECGEVFAHSSN have protein stability index greater than or equal to 3?
result: criterion met

query: Entry QRTHTGEKPYKCPERGEIFAHSSN : is its protein stability index no less than 3?
result: criterion met

query: Please indicate if the recorded protein stability index for QRWHTGEKPYKCPECGEIFAHSSN meets or exceeds 3.
result: criterion not met

Origin of measurements: the supplement of paper PMC10567573
